Cited source for all entries: the supplement of paper PMC10065799

Reported values of phosphorylation enrichment for individual entries
Target: FGFR1 (UniProt P11362)
Sequence (P11362 whole entry, looked up): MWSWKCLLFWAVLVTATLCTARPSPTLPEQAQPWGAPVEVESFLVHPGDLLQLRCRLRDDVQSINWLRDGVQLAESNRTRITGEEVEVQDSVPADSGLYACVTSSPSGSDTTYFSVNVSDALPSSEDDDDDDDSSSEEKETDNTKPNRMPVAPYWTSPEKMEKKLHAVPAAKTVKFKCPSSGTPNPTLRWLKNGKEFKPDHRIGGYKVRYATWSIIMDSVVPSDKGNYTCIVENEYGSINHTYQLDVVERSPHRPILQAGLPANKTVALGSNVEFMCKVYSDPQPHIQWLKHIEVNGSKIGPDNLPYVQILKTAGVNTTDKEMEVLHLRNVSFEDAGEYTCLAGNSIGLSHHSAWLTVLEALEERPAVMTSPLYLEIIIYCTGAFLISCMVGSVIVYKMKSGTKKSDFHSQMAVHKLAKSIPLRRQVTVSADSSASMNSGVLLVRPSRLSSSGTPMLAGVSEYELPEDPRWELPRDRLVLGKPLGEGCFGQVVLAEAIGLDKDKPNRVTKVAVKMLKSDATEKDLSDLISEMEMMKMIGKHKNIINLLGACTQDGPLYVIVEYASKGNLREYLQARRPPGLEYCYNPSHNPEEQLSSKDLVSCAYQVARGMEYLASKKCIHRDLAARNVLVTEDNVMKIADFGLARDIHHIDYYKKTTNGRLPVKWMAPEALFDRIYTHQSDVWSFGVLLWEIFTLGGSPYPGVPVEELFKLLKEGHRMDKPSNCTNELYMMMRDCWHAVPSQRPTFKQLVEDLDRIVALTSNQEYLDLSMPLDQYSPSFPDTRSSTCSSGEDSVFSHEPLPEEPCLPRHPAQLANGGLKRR
Assay: phosphorylation enrichment, bacterial display (enrichment ratio); higher = better substrate or ligand; peptides without Tyr show the background
# output: bare number, no unit

input: Give the measured phosphorylation enrichment of LIDGYYRLTAD [JAK2_Y373] .
output: 11.5

input: One more sequence: PQEVTYAQLDH [KIR3DL2_Y398]
output: 3.41

input: One more sequence: PSSNLYYRCLT [CNGA3_Y168_W171C]
output: 1.9

input: One more sequence: SSSAIYDNPNL [DCP1B_Y191]
output: 0.411

input: One more sequence: EADRKYEEVAH [TPM3_Y163_R168H]
output: 0.493

Others:
input: Give the measured phosphorylation enrichment of DPEAAYTTRGG [EPHA3_Y779] .
output: 0.376

input: One more sequence: VMTVDYSKTVV [SETD2_Y770]
output: 0.456

input: One more sequence: DFLEKYFKFGS [NNMT_Y24_YF]
output: 0.491

input: One more sequence: VGTTAYMAPEA [IRAK4_Y354]
output: 0.418

input: One more sequence: KMLEKYKERLN [TLK2_Y259]
output: 0.46

input: One more sequence: FLAVGYHKPYI [IDS_Y225_H229Y]
output: 0.446

input: One more sequence: KNRDVYSSDYF [USP24_Y2134]
output: 2.07

input: One more sequence: TDLAFYLVREG [ASL_Y376_K380E_YF]
output: 0.574

###

Molecular target: FGFR1 (UniProt P11362)
Test: phosphorylation enrichment, bacterial display (enrichment ratio); higher = better substrate or ligand; peptides without Tyr show the background
value-type: phosphorylation enrichment
# output: bare number, no unit

input: Give the measured phosphorylation enrichment of TLRKTYGEMAD [ALB_Y108_E106K] .
output: 0.508

Others:
input: Give the measured phosphorylation enrichment of VFFDLYGGEKF [PTPN11_Y66_D61V_YF] .
output: 0.443

input: One more sequence: KWRGQYDVAIK [BTK_Y425]
output: 0.527

input: One more sequence: MHDSNSVSKGS [PDGFRA_Y849_Y849S]
output: 0.402

input: One more sequence: HGDDDYDDPEL [CLNK_Y69_S65G]
output: 0.91

input: One more sequence: DVLEFCNSKKT [PAK1_Y131_Y131C]
output: 0.428

input: One more sequence: GGKFSYLKVGH [GRM3_Y480_YF]
output: 0.512

###

Molecular target: Grb2 SH2 (UniProt P62993)
Sequence (P62993 whole entry, looked up): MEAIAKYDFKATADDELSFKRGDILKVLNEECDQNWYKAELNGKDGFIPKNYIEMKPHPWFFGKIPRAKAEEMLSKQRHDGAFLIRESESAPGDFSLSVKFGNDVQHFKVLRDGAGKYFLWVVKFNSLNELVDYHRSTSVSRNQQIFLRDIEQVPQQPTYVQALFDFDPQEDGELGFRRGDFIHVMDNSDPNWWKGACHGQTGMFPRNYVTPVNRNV
Experiment: SH2 binding enrichment of the phosphorylated peptide, bacterial display (enrichment ratio); higher = better substrate or ligand; peptides without Tyr show the background
# cutoff 0.9 applies to SH2 binding enrichment; >= gives fulfilled, < gives not fulfilled

input: Textbook exercise: given the entry AHAGEYGEEAL [HBA1_Y25_A27E] , state whether its SH2 binding enrichment is greater than or equal to 0.9.
output: not fulfilled

input: One more sequence: NKKHHYRELPV [ERN2_Y860]
output: fulfilled

Others:
input: Textbook exercise: given the entry KLIETCFSKNY [PLP1_Y50_Y50C] , state whether its SH2 binding enrichment is greater than or equal to 0.9.
output: not fulfilled

input: One more sequence: CDTKLYTSAPN [DNTTIP2_Y427]
output: not fulfilled

input: One more sequence: HNVPIYEGFAL [ACTA1_Y168_YF]
output: not fulfilled

input: One more sequence: EFFDGYWEFSV [ITGA2B_Y265_G267E_YF]
output: not fulfilled

input: One more sequence: IDAICYYRMEN [NPHS2_Y194]
output: not fulfilled

input: One more sequence: FLAVGYHKPHI [IDS_Y225]
output: fulfilled
